Target: UniProt:Q9UDY8
Assay: Inhibition MALT1 (unknown origin) using Ac-LRSR-AMC as substrate by fluorescence based analysis
property: IC50 (nM)
Output spec: scalar in nM, unitless text.

Exam item: Suppose we examine the compound CO[C@@H](C)c1c(NC(=O)Nc2cncc(C(F)(F)F)c2)cnc2cc(Cl)nn12 ; what IC50 value has been reported?
Marked response: 4

* * *

pIC50: −log10 of the molar value.
As a worked illustration, we turn to pIC50 data collected for UniProt Q9UDY8.

# compound, property, observedMeasurement
records = [
    ("COC(C)c1c(NC(=O)Nc2cnc(-n3nccn3)c(C(F)(F)F)c2)cnc2sc(C)nc12 (stereo not drawn)", "pIC50", "> 7.30"),
    ("CO[C@@H](c1c(NC(=O)Nc2cnc(-n3nccn3)c(C(F)(F)F)c2)cnc(C)c1C#N)C1CC1", "pIC50", 7.70),
]

Then this compound:
Exam item: Suppose we examine the compound O=C(Nc1cncc(C(F)(F)F)c1)Nc1cnn2cc(Cl)nc2c1C1CC1 ; what pIC50 value has been reported?
Marked response: > 7.00

* * *

Known IC50 of a selection of molecules
Biological target: Mucosa-associated lymphoid tissue lymphoma translocation protein 1 (Homo sapiens)
Assay: biochemical
Description: Inhibition of human full length His-tagged MALT1 (1 to 824 residues) infected in baculovirus infected Insect cells using Ac-LRSR-AMC as substrate incubated for 1 hr by HTRF assay
Output spec: scalar in nM, unitless text.

Record excerpt, results attached:
# molecule, measuredOn, readoutUnits, IC50
measured = [
    ("CO[C@@H](C)c1c(NC(=O)Nc2cnc3c(c2)COc2ccnn2-3)cnc2cc(Cl)nn12", "Mucosa-associated lymphoid tissue lymphoma translocation protein 1 (Homo sapiens)", "nM", 34),
    ("O=C1NC2C=CC(n3ncc(C(=O)Nc4cnc(-n5nccn5)c(Cl)c4)c3C(F)(F)F)=C3C=CC=C1C32 (centres undefined)", "Mucosa-associated lymphoid tissue lymphoma translocation protein 1 (Homo sapiens)", "nM", 15),
]

Then this molecule:
Exam item: Suppose we examine the molecule CC1(C(F)(F)F)CN(C(=O)Nc2ccc3nonc3c2)c2cnc3cc(Cl)nn3c21 (centres undefined) ; what IC50 value has been reported?
Marked response: 34

* * *

Biological target: UniProt Q9UDY8
Assay: Inhibition of N-terminal human recombinant MALT1 expressed in Jurkat cells assessed as suppression of IL-2 secretion
property: IC50 (nM)
Output spec: scalar in nM, unitless text.

Exam item: Suppose we examine the molecule CCc1ccc2cnn(C)c2c1NS(=O)(=O)c1ccc(N2C[C@](O)(C(F)(F)F)CC2=O)nc1 ; what IC50 value has been reported?
Marked response: 53

* * *

Tested on: OCI-Ly3
Experiment: Antiproliferative activity against human OCI-Ly3 cells
Format: functional, cell-based
property: IC50 (µM)
Output spec: scalar in µM, unitless text.

Exam item: Suppose we examine the compound CC1(C)CCC2=C(O1)c1ccccc1C(=O)C2=O ; what IC50 value has been reported?
Marked response: 4

* * *

Target: Mucosa-associated lymphoid tissue lymphoma translocation protein 1 (Homo sapiens)
Experiment: biochemical
Description: Inhibition of N-terminal recombinant human MALT1 (329 to 824 residues) extracted from baculovirus infected Sf21 cells using c-LRSR~Rhodamine110-DP as substrate by fluorescence based assay
property: pIC50
FYI, pIC50 means -log10 of a concentration in mol per litre.

Exam item: Suppose we examine the compound CCc1ccc2cnn(C)c2c1NS(=O)(=O)c1ccc(N2C[C@](O)(C(F)(F)F)CC2=O)nc1 ; what pIC50 value has been reported?
Marked response: 7.80

* * *

Biological target: Mucosa-associated lymphoid tissue lymphoma translocation protein 1 (Homo sapiens, UniProt Q9UDY8)
Sequence (Q9UDY8 whole entry): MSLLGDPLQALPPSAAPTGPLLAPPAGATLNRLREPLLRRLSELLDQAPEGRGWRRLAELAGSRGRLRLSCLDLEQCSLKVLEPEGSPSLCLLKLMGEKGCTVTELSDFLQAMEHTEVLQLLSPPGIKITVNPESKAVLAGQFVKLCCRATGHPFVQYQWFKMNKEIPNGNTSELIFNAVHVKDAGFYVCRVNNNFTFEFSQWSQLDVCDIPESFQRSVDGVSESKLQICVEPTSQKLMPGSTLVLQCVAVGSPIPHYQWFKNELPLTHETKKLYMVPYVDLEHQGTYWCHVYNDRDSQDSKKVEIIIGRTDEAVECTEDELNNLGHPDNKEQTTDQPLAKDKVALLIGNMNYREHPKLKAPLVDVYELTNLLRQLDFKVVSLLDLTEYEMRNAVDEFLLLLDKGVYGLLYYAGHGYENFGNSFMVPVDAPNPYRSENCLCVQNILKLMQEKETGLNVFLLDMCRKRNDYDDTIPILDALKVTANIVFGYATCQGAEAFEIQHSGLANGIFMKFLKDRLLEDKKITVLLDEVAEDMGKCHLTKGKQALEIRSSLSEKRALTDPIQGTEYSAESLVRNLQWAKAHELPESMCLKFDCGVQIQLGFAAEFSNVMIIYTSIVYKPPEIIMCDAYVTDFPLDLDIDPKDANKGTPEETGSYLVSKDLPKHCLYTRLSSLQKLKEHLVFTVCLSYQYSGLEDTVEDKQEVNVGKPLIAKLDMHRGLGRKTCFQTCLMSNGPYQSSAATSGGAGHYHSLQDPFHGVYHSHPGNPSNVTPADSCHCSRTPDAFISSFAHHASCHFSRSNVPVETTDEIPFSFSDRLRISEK
Where a SMILES comes first, the peptide text is derived from it. The star is where a group is joined. Cbz = O=C(OCc1ccccc1)*; CH2F = FC*
property: pKi
FYI, pKi means -log10 of a concentration in mol per litre.

Exam item: Suppose we examine the compound CC(C)[C@H](NC(=O)OCc1ccccc1)C(=O)N1CCC[C@H]1C(=O)N[C@@H](CCCNC(=N)N)C(=O)CF (Cbz-Val-Pro-Arg-CH2F) ; what pKi value has been reported?
Marked response: 7.52
